Hey, just so you know, these numbers are from patent US20140045807A2.

target: MAP2 (Homo sapiens, UniProt P11137)
Sequence (P11137 whole entry): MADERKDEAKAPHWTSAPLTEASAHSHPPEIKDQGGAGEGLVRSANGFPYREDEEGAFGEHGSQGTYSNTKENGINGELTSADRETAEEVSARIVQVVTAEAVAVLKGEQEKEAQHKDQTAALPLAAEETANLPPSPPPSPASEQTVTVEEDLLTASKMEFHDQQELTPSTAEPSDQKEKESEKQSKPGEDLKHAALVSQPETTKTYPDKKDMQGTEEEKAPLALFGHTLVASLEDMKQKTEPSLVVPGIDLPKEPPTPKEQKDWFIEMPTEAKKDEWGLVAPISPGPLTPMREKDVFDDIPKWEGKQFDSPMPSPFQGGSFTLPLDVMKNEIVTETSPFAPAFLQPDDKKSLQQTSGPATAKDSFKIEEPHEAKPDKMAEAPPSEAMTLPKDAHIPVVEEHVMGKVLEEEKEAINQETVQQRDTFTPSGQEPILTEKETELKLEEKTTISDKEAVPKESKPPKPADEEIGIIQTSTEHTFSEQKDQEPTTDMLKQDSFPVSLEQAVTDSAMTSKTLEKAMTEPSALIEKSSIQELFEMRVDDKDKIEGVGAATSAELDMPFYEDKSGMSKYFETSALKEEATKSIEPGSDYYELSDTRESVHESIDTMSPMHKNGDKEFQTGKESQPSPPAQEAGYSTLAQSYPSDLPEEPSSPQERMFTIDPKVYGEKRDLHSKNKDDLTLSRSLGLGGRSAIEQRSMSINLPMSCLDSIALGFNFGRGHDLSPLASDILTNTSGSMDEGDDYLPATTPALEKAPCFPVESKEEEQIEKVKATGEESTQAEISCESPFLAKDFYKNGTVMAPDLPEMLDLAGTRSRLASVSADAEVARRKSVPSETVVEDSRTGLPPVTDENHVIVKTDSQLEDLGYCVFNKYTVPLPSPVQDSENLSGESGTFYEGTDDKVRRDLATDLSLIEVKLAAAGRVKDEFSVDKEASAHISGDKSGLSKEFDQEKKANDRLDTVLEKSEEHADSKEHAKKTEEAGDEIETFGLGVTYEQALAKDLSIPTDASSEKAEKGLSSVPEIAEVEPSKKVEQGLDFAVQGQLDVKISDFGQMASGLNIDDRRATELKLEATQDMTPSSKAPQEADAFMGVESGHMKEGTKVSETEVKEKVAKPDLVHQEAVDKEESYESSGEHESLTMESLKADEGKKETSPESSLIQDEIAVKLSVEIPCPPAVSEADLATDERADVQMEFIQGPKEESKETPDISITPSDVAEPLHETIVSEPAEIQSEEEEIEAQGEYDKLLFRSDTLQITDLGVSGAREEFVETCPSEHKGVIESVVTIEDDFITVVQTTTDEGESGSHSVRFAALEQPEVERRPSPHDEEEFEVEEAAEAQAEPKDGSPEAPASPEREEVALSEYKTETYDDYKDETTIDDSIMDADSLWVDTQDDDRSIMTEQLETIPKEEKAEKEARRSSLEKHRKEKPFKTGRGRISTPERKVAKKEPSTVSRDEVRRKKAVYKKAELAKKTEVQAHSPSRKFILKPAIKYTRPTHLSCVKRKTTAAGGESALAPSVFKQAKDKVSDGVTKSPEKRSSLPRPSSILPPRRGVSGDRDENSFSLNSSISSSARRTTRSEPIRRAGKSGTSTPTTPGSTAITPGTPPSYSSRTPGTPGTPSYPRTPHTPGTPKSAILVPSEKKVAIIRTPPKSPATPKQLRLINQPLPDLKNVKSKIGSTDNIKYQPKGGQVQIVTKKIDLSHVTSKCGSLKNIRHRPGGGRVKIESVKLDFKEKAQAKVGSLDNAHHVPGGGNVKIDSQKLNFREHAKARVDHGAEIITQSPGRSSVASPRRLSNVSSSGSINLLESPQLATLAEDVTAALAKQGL
procedure_details: Binding (affinity) by displacement of PREG-^3H
Recorded Affinity (index of binding) values for a group of compounds are listed next.

Below: 3 compounds and their reported Affinity (index of binding).
CC(=O)[C@@]12C[C@@H]1C[C@H]1[C@@H]3CC=C4C[C@@H](O)CC[C@]4(C)[C@H]3CC[C@@]12C :: 62% of PREG
CC(=O)O[C@H](C)[C@H]1CC[C@H]2[C@@H]3CC=C4C[C@@H](O)CC[C@]4(C)[C@H]3CC[C@]12C [Pregna-5-ene-3β,20β-diol-20-acetate] :: 60% of PREG
CO[C@H]1CC[C@@]2(C)[C@@H](CC[C@@H]3[C@@H]2CC[C@]2(C)[C@@H](C(C)=O)CC[C@@H]32)C1 :: 87% of PREG

Consider the record given below.
Inquiry: Requested field: Affinity (index of binding). Item: CC(=O)[C@H]1[C@H](C)C[C@H]2[C@@H]3CC[C@H]4C[C@@H](O)CC[C@]4(C)[C@H]3CC[C@@]21C [3β-hydroxy-5α-pregnane-20-one-16α-methyl]
Reply text: 57% of PREG
